Test: probe aShh binding to arrayed compounds – biochemical, biotinylated probe, 635/667 nm fluorescence, primary screen (AID 1114);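 note: probe is biotin-labelled aShh protein from a stem cell growth factor screen; measures binding of labelled protein to compounds printed on the slide; score merges feature fluorescence at 667 nm with signal-to-noise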
Settings: small-molecule microarray, higher = more signal
Parameter: composite z-score. Scope: all listed entries.
experimental.endpoint: composite z-score

[
  {
    "molecule": "CC(C)C[C@H]1NC(=O)C([C@@H](C)OCc2ccccc2)NC(=O)[C@@]23C(=O)N[C@@H](Cc4ccccc4)C2[C@H](C)[C@@]2(C)O[C@H]2C3/C=C/C/C=C\\CNC1=O (stereo partly drawn)",
    "experimental.endpoint": "composite z-score",
    "value": -0.0553
  },
  {
    "molecule": "C[C@@H]1ON(c2ccc(I)cc2)[C@H](c2cccc(NC(=O)OCC3c4ccccc4-c4ccccc43)c2)[C@H]1C(=O)N1C(=O)OC[C@H]1Cc1ccccc1",
    "experimental.endpoint": "composite z-score",
    "value": -0.0866
  },
  {
    "molecule": "C=CCC(OC(C)=O)[C@@H]1[C@@H](N(Cc2ccc(-c3cccc(C(F)(F)F)c3)o2)C(=O)Cc2ccc(F)cc2)c2cc(OCCCO)ccc2N1C(=O)Cc1ccc2ccccc2c1 (stereo partly drawn)",
    "experimental.endpoint": "composite z-score",
    "value": 0.0684
  }
]

----------
Below is a list of entries, each paired with its recorded composite z-score value.
Target: Torsin-1A-interacting protein 1 (Homo sapiens)
Assay: compound microarray binding of lysate hLAP1 – cell lysate, small-molecule microarray, COS7 lysate, 635/667 nm fluorescence, primary screen (AID 1116)
Details: 635 nm fluorescence, higher = more signal
experimental.endpoint: composite z-score

[
  {
    "compound": "CCCC[C@H]1C[C@@H]1[C@@H]1N(C(C)=O)[C@H](c2cccc(OC)c2)CC12CC2",
    "target.of.assay": "Torsin-1A-interacting protein 1 (Homo sapiens)",
    "experimental.endpoint": "composite z-score",
    "value": 0.632
  },
  {
    "compound": "CC1CC/C=C\\[C@H]2OC34C=CCN(Cn5nnc6ccccc65)C(=O)[C@H]3N(CCCCCCO)C(=O)[C@@H]4C2C(=O)O1 (some centres undefined)",
    "target.of.assay": "Torsin-1A-interacting protein 1 (Homo sapiens)",
    "experimental.endpoint": "composite z-score",
    "value": 0.145
  },
  {
    "compound": "C=CCN1C(=O)[C@@]2(O[C@@H](CCn3cc([C@H](O)c4ccccc4)nn3)[C@H]([Si](C)(C)c3ccc(OC)cc3)[C@H]2C)c2cc(N3C(=O)c4cccc5cccc3c45)ccc21",
    "target.of.assay": "Torsin-1A-interacting protein 1 (Homo sapiens)",
    "experimental.endpoint": "composite z-score",
    "value": -0.236
  },
  {
    "compound": "COC(=O)C(CC#Cc1ccc2c(c1)[C@]1(C(=O)N2)[C@H](C(=O)N2CCc3cc(OC)c(OC)cc3C2)[C@H]2C(=O)O[C@H](c3ccccc3)[C@H](c3ccccc3)N2[C@@H]1c1ccccc1OCCO)C(=O)OC",
    "target.of.assay": "Torsin-1A-interacting protein 1 (Homo sapiens)",
    "experimental.endpoint": "composite z-score",
    "value": 1.59
  },
  {
    "compound": "CC(C)N1C(=O)C[C@@](C(=O)NCCN2CCOCC2)(c2ccc([N+](=O)[O-])cc2)[C@H]1c1ccc(CO)cc1",
    "target.of.assay": "Torsin-1A-interacting protein 1 (Homo sapiens)",
    "experimental.endpoint": "composite z-score",
    "value": 2.15
  },
  {
    "compound": "O=C(N1CCOCC1)[C@@]1(Cc2ccccc2)COC(c2ccc(OCCCO)cc2)=N1",
    "target.of.assay": "Torsin-1A-interacting protein 1 (Homo sapiens)",
    "experimental.endpoint": "composite z-score",
    "value": 1.38
  },
  {
    "compound": "CCCCC(O)C1C=CC2C(=O)N(c3ccccc3)C(=O)C2N1Nc1ccccc1 (centres undefined)",
    "target.of.assay": "Torsin-1A-interacting protein 1 (Homo sapiens)",
    "experimental.endpoint": "composite z-score",
    "value": 0.721
  },
  {
    "compound": "CC(C)C(=C=CC[C@H](O)c1ccccc1OCCO)C[C@H](O)c1cc(Cl)cc(Cl)c1O",
    "target.of.assay": "Torsin-1A-interacting protein 1 (Homo sapiens)",
    "experimental.endpoint": "composite z-score",
    "value": 0.962
  },
  {
    "compound": "[N-]=[N+]=Nc1ccccc1C[C@]1(C(=O)N2CCOCC2)N=C(c2ccc(OCCCO)cc2)O[C@H]1c1ccccc1N=[N+]=[N-]",
    "target.of.assay": "Torsin-1A-interacting protein 1 (Homo sapiens)",
    "experimental.endpoint": "composite z-score",
    "value": 1.9
  },
  {
    "compound": "O=C(NCCN1CCOCC1)[C@@H]1c2ccccc2C(=O)N(Cc2ccccc2C(F)(F)F)[C@H]1c1ccc(CO)cc1",
    "target.of.assay": "Torsin-1A-interacting protein 1 (Homo sapiens)",
    "experimental.endpoint": "composite z-score",
    "value": -0.851
  },
  {
    "compound": "C=CCC(OC(C)=O)[C@@H]1[C@@H](N(Cc2cc3ccccc3o2)C(=O)c2cccc3ccccc23)c2cc(OCCCO)ccc2N1C(=O)c1ccc2ccccc2n1 (some centres undefined)",
    "target.of.assay": "Torsin-1A-interacting protein 1 (Homo sapiens)",
    "experimental.endpoint": "composite z-score",
    "value": 0.615
  },
  {
    "compound": "Cc1ccc(S[C@]2(C(=O)NCCCN(C)C)CC(=O)N(C3Cc4ccccc4C3)[C@@H]2c2ccc(CO)cc2I)cc1",
    "target.of.assay": "Torsin-1A-interacting protein 1 (Homo sapiens)",
    "experimental.endpoint": "composite z-score",
    "value": 0.157
  },
  {
    "compound": "C=CCC(OC(C)=O)[C@@H]1[C@@H](N(Cc2cccc3ccccc23)C(=O)c2ccc(-c3ccccc3)cc2)c2cc(OCCCO)ccc2N1C(=O)Cc1ccc2ccccc2c1 (some centres undefined)",
    "target.of.assay": "Torsin-1A-interacting protein 1 (Homo sapiens)",
    "experimental.endpoint": "composite z-score",
    "value": 0.438
  },
  {
    "compound": "C[N+](C)(C)CCCCNC(=O)[C@H]1C[C@H]2C(=O)N[C@@H](Cc3ccccc3)C(=O)N2[C@H]1c1cccc(OCCO)c1",
    "target.of.assay": "Torsin-1A-interacting protein 1 (Homo sapiens)",
    "experimental.endpoint": "composite z-score",
    "value": 1.17
  }
]

----------
Assay: viability profiling in MM1S myeloma cells – cell-based, resazurin fluorescence, basal, 24 h, PK04 Diversity Set, profiling panel (AID 1174);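 note: MM1S multiple myeloma cell line; test concentration not given here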
Conditions: higher = more signal, called active from +8 up or from −8 down

[
  {
    "item.smiles": "COCCOC(=O)N1C(=O)[C@@]2(c3cc(C#CCCO)ccc31)[C@H](c1ccccc1OCCO)N1[C@H](c3ccccc3)[C@H](c3ccccc3)OC(=O)[C@H]1[C@@H]2C(N)=O",
    "z-score": -1.49
  },
  {
    "item.smiles": "C=CCOC(=O)[C@H]1[C@@H]2C(=O)O[C@@H](c3ccccc3)[C@@H](c3ccccc3)N2[C@@H](c2ccc(OCCOC(=O)[C@@H]3C[C@@H]4C(=O)N[C@@H](CCCC[N+](C)(C)C)C(=O)N4[C@@H]3c3ccc(O)cc3)cc2)[C@]12C(=O)Nc1ccc(I)cc12",
    "z-score": -1.17
  }
]

----------
Catalogue of molecules with associated z-score
Assay: ATP-based viability of Huh7 replicon cells – cell-based, CellTiter-Glo luminescence, basal, 48 h, cytotoxicity control for HCV replication inhibitor project, primary screen (AID 1143);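 note: Huh7 hepatoma cells carrying a hepatitis C replication reporter with no stimulus; test concentration not given here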
Conditions: higher = more signal, called active from +8 up or from −8 down
Calls of active or inactive are those of the source.

[
  {
    "molecule": "COc1ccc([Si](C)(C)[C@@H]2[C@@H](CC(=O)N(CCO)Cc3ccccc3)O[C@]3(C(=O)N(Cc4ccc(I)cc4)c4ccccc43)[C@H]2C)cc1",
    "z-score": "-4.48 (inactive)"
  },
  {
    "molecule": "COCCCNC(=O)[C@@H]1c2ccccc2C(=O)N(Cc2ccc(OC(F)(F)F)cc2)[C@H]1c1ccc(CO)cc1",
    "z-score": "-0.429 (inactive)"
  },
  {
    "molecule": "COCCOC(=O)N1C(=O)[C@@]2(c3ccccc31)[C@H](C(=O)N1CCN(c3ncccn3)CC1)[C@H]1C(=O)O[C@H](c3ccccc3)[C@H](c3ccccc3)N1[C@@H]2c1ccccc1OCCO",
    "z-score": "-4.29 (inactive)"
  },
  {
    "molecule": "COc1ccc(C(O)C2C=CC3C(=O)N(c4ccccc4)C(=O)C3N2Nc2ccc([N+](=O)[O-])cc2)c2ccccc12 (stereo not drawn)",
    "z-score": "-0.8 (inactive)"
  },
  {
    "molecule": "O=C1NC(=O)C2C1C=CC(C(O)c1ccc(B(O)O)cc1)N2Nc1ccc(Cl)cc1Cl (stereo not drawn)",
    "z-score": "-0.245 (inactive)"
  },
  {
    "molecule": "CCOC(=O)C1=CC[C@@H](c2ccc(OC)cc2)N(S(=O)(=O)c2ccc(C)cc2)[C@H]1CC",
    "z-score": "-5.57 (inactive)"
  },
  {
    "molecule": "COC(=O)[C@]1(CCC(=O)OC(C)(C)C)N=C(c2ccc(OCCCO)cc2)O[C@@H]1c1ccccc1N=[N+]=[N-]",
    "z-score": "-2.64 (inactive)"
  },
  {
    "molecule": "COCCCNC(=O)[C@@]1(CCS(=O)(=O)c2ccccc2)COC(c2ccc(OCCCO)cc2)=N1",
    "z-score": "-0.0036 (inactive)"
  },
  {
    "molecule": "COc1ccc([Si](C)(C)[C@@H]2[C@@H](CC(=O)N3Cc4ccccc4C[C@H]3CO)O[C@]3(C(=O)N(Cc4cccc(N5CCOC5=O)c4)c4ccccc43)[C@H]2C)cc1",
    "z-score": "-4.12 (inactive)"
  },
  {
    "molecule": "O=C(NCc1ccccc1)[C@@H]1c2ccccc2C(=O)N(Cc2ccc(OC(F)(F)F)cc2)[C@H]1c1ccc(CO)cc1",
    "z-score": "-0.495 (inactive)"
  },
  {
    "molecule": "N#Cc1ccc(C(O)C2C=CC3C(=O)NC(=O)C3N2Nc2ccc(Cl)cc2Cl)cc1 (stereo not drawn)",
    "z-score": "0.199 (inactive)"
  },
  {
    "molecule": "C=CCC(OC(C)=O)[C@@H]1[C@@H](N(Cc2ccc(-c3ccccc3)cc2)C(=O)c2cccc3ccccc23)c2cc(OCCCO)ccc2N1C(=O)Cc1ccc(OC)cc1 (stereo partly drawn)",
    "z-score": "-1.62 (inactive)"
  },
  {
    "molecule": "COCCOC(=O)N1C(=O)[C@@]2(c3cc(C#CCC(C(=O)OC)C(=O)OC)ccc31)[C@H](c1ccc(O)cc1)N1[C@H](c3ccccc3)[C@H](c3ccccc3)OC(=O)[C@H]1[C@@H]2C(=O)Nc1nc2ccccc2s1",
    "z-score": "-1.48 (inactive)"
  },
  {
    "molecule": "COCCCNC(=O)[C@@]1(Sc2ccc(C)cc2)CC(=O)N(Cc2ccccc2C(F)(F)F)[C@@H]1c1ccc(CO)cc1I",
    "z-score": "-0.818 (inactive)"
  },
  {
    "molecule": "C=CCOC(=O)[C@@H]1[C@H]2C(=O)O[C@H](c3ccccc3)[C@H](c3ccccc3)N2[C@H](c2ccc(OCCOC(=O)[C@H]3C[C@H]4C(=O)NCC(=O)N4[C@H]3c3cccc(OCCO)c3)cc2)[C@@]12C(=O)Nc1ccc(I)cc12",
    "z-score": "-0.357 (inactive)"
  },
  {
    "molecule": "COc1cc(C(O)C2C=CC3C(=O)N(c4ccccc4)C(=O)C3N2Nc2ccccc2)cc(OC)c1OC (stereo not drawn)",
    "z-score": "-0.685 (inactive)"
  },
  {
    "molecule": "CC(C)NC(=O)[C@@H]1c2ccccc2C(=O)N(Cc2ccc(OC(F)(F)F)cc2)[C@H]1c1ccc(CO)cc1",
    "z-score": "-1.54 (inactive)"
  },
  {
    "molecule": "C[C@@H]1ON(c2ccc(I)cc2)[C@H](c2cccc(NC(=O)OCC3c4ccccc4-c4ccccc43)c2)[C@H]1C(=O)N1C(=O)OC[C@H]1Cc1ccccc1",
    "z-score": "-0.659 (inactive)"
  },
  {
    "molecule": "CN(C)CCCCNC(=O)[C@H]1C[C@H]2C(=O)N3CCC[C@H]3C(=O)N2[C@H]1c1cccc(OCCO)c1",
    "z-score": "0.196 (inactive)"
  },
  {
    "molecule": "CCCCC(O)C1C=CC2C(=O)N(c3ccccc3)C(=O)C2N1Nc1ccc(C#N)cc1 (stereo not drawn)",
    "z-score": "0.739 (inactive)"
  },
  {
    "molecule": "O=C1C[C@]2(c3ccc([N+](=O)[O-])cc3)C(=O)N(C3CC3)c3cc(CO)ccc3[C@H]2N1C1CCCCC1",
    "z-score": "1.09 (inactive)"
  },
  {
    "molecule": "CCCCCCc1nc(-c2ccc(-c3ccc(Cl)c(Cl)c3)o2)cc2c1[Si](C(C)C)(C(C)C)OC2",
    "z-score": "-5.45 (inactive)"
  },
  {
    "molecule": "COc1ccc([Si](C)(C)[C@H]2[C@H](CC(=O)N3Cc4ccccc4C[C@H]3CO)O[C@@]3(C(=O)N(C)c4ccccc43)[C@@H]2C)cc1",
    "z-score": "-7.33 (inactive)"
  },
  {
    "molecule": "COc1ccc(C(=O)Nc2ccc(CN3C(=O)[C@@]4(O[C@@H](CCn5cc(CCO)nn5)[C@H]([Si](C)(C)c5ccc(OC)cc5)[C@H]4C)c4ccccc43)cc2)cc1",
    "z-score": "-7.97 (inactive)"
  },
  {
    "molecule": "CCCN1C(=O)[C@]2(CCC(=O)OC(C)(C)C)N=C(c3ccc(OCCCO)cc3)O[C@@H]2c2ccccc21",
    "z-score": "-4.35 (inactive)"
  },
  {
    "molecule": "COc1ccc(CCNC(=O)[C@@H]2c3ccccc3C(=O)N(Cc3ccccc3OC)[C@H]2c2ccc(CO)cc2)cc1",
    "z-score": "-0.449 (inactive)"
  },
  {
    "molecule": "CN(C)c1ccc(C(O)C2C=CC3C(=O)N(Cc4ccccc4)C(=O)C3N2n2cnnc2)cc1 (stereo not drawn)",
    "z-score": "0.166 (inactive)"
  },
  {
    "molecule": "C=CCN1C(=O)[C@@]2(O[C@@H](CCn3cc([C@H](O)c4ccccc4)nn3)[C@H]([Si](C)(C)c3ccc(OC)cc3)[C@H]2C)c2cc(N3C(=O)c4cccc5cccc3c45)ccc21",
    "z-score": "-3.71 (inactive)"
  }
]

Just for reference, PubChem BioAssay is where these values come from.
